Please go through the items and note down their Kd.
- experimentalTarget: T1, recombinant human Tau monomer, 2N4R isoform (amino acids 2-441) (human, UniProt P10636-8 2-441)
- T1 construct: range 2-441; N-terminal His-tag removed with TEV protease; also called monomeric Tau
- T1 sequence (P10636 other isoform, or with tags, fused parts or gaps limits assumed): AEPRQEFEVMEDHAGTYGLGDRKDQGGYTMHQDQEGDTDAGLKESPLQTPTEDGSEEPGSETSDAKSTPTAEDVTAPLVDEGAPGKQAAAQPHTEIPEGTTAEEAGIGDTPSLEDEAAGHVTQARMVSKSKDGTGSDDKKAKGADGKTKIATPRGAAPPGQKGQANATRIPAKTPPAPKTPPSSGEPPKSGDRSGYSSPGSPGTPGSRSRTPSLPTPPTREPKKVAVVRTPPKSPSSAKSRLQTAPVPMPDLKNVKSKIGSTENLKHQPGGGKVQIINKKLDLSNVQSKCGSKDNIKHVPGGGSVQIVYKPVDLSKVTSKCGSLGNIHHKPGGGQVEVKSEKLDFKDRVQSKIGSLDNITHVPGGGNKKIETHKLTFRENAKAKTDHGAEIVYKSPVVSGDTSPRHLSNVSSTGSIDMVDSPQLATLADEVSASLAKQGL
- assayComment: SPR, captured IgG, Tau monomer analyte, 1:1 model; fit-quality column: Yes
Put your answer as a value accompanied by its unit after it.

Asked: Give recorded Kd. hu37D3.v28.B6 (antibody, V domains shown) VH: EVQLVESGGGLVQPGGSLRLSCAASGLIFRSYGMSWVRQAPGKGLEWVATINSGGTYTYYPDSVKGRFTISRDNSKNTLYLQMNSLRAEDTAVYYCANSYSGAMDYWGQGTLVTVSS VL: DDVLTQTPLSLPVTPGQPASISCRSSQSIVHSDGNTRFEWYLQKPGQSPQLLIYKVSNRFSGVPDRFSGSGSGTDFTLKISRVEAEDVGVYYCFQGSLVPWTFGQGTKVEIK
Given back: 85.6 nM

Asked: Give recorded Kd. hu37D3.v28.A2 (antibody, V domains shown) VH: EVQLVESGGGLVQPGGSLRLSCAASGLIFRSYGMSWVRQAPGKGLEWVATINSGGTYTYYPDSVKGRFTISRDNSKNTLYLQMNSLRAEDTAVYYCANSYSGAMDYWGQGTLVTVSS VL: DDVLTQTPLSLPVTPGQPASISCRSSQSIVHSNGNTYFEWYLQKPGQSPQLLIYKVSNRFSGVPDRFSGSGSGTDFTLKISRVEAEDVGVYYCFQGSHVPWTFGQGTKVEIK
Given back: 32.6 nM

The measurements presented in this section are drawn from patent US20190367592A1.
